- Assay Name: Oral pharmacokinetics of digoxin with and without BM pre-treatment
- Assay type: in vivo, male Sprague-Dawley rat
- Assay Conditions: male, Sprague-Dawley, rat, plasma, po, 0.2 mg/kg, BM pretreated rats (31 mg/kg/day 7 days); digoxin 0.2 mg/kg oral
Measured Attribute: half-life
The answer consists of two parts: a number and, after it, its unit.

Input line: Item under review: `C[C@H]1O[C@@H](O[C@H]2[C@@H](O)C[C@H](O[C@H]3[C@@H](O)C[C@H](O[C@H]4CC[C@@]5(C)[C@H](CC[C@@H]6[C@@H]5C[C@@H](O)[C@]5(C)[C@@H](C7=CC(=O)OC7)CC[C@]65O)C4)O[C@@H]3C)O[C@@H]2C)C[C@H](O)[C@@H]1O` . Reported half-life?
Output line: 4.33 h
